# method summary: Cmax in rat at 5 mg/kg, po
# Format: ADME, organism-based
# Parameters: dose 5 mg/kg, route oral
# measurement setup: in vivo
Cmax by entry:
readout type: Cmax

| smiles str | result |
| --- | --- |
| CC(C)(C#Cc1ccc(NC(=O)CSc2nnnn2-c2ccc(C3CC3)cc2Cl)c(Cl)c1)CNCC(=O)O | 260 nM |
| CC(C)(C#Cc1ccc(NC(=O)CSc2nnnn2-c2ccc(C3CC3)cc2Cl)c(Cl)c1)NC(=O)CN | 280 nM |
| CC(C)(C#Cc1ccc(NC(=O)CSc2nnnn2-c2ccc(C3CC3)cc2Cl)c(Cl)c1)C(=O)O | 5000 nM |

Source of measurements: ChEMBL document CHEMBL1149570
